- Subject of test: T1, human IL-4Rα on TF-1 cells (human, UniProt P24394 26-825)
- T1 sequence (looked up): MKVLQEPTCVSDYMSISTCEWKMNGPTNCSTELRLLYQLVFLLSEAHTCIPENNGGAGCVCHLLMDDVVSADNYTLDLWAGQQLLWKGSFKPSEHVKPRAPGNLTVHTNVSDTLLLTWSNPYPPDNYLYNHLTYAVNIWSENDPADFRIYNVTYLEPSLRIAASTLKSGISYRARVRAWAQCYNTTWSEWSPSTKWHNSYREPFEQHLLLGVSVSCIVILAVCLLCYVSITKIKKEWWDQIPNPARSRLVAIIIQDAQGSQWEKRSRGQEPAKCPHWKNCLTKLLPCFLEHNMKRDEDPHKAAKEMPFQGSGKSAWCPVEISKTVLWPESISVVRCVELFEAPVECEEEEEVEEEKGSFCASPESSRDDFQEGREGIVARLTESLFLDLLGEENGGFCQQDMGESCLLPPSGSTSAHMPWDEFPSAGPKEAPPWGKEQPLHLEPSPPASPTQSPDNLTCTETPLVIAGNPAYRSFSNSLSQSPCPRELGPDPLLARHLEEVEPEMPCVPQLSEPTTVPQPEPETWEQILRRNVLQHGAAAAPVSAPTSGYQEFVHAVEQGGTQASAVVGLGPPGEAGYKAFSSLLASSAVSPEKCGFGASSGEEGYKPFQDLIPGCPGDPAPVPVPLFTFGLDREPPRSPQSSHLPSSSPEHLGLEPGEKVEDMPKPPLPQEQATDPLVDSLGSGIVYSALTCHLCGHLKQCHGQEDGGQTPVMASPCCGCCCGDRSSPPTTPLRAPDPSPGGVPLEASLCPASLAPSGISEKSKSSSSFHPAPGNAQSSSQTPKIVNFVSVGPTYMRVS
- Assay comment: cell-based or functional assay
Lab note: anything with IC50 (pM), IL-4 induced TF-1 cell proliferation below 10 pM is marked t; values at 10 pM or higher are marked f.

Task: Quick check: does Antibody 37 IgG (antibody, V domains shown) VH: QVQLVQSGAEVKKPGASVKVSCKASGYAFTSYYMHWARQAPGQGLEWMGIINPRGGSTSYAQKFQGRVAMTRDTSTSTVYMELSSLRPEDTAVYYCARGKYWMYDWGKGTLVTVSS VL: QSVLTQPPSVSAAPGQKVTISCSGGGSSIGNSYVSWYQQLPGTAPKLLIYDNNKRPSGVPDRFSGSKSGTSATLAITGLQTGDEADYYCGTWDTSPVWEWPFGTGTKLTVL have IC50 (pM), IL-4 induced TF-1 cell proliferation under 10 pM?
Output: f

Task: Quick check: does Antibody 42 IgG (antibody, V domains shown) VH: QVQLVQSGAEVKKPGASVKVSCKASGYAFTSYYMHWARQAPGQGLEWVGIINPSGGSTSYAQKFQGRVTMTRDTSTSTVYMELSSLRSGDTAVYYCARGKYWMYDWGKGTLVTVSS VL: QAVLTQPPSVSAAPGQKVTISCSGGSSNIGNSYVSWYQRLPGAAPKLLIYDNNKRPSGIPDRFSGSKSGTSATLAITGLQTGDEADYYCGTWDTSTGWEWPFGTGTKLTVL have IC50 (pM), IL-4 induced TF-1 cell proliferation under 10 pM?
Output: f

Task: Quick check: does Antibody 16 IgG (antibody, V domains shown) VH: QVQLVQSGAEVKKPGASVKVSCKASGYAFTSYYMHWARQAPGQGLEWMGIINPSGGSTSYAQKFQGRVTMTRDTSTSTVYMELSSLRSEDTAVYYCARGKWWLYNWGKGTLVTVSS VL: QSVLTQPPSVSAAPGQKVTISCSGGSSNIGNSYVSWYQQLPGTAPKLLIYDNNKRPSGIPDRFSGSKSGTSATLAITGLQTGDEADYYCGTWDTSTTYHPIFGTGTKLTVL have IC50 (pM), IL-4 induced TF-1 cell proliferation under 10 pM?
Output: t

Task: Quick check: does Antibody 24 IgG (antibody, V domains shown) VH: QVQLVQSGAEVKKPGASVKVSCKASGYAFTSYYMHWARQAPGQGLEWMGIINPRGGSTSYAQKFQGRVTMTRDTSTSTVYMELSSLRSEDTAVYYCARGKYWMYDWGKGTLVTVSS VL: QSVLTQPPSVSAAPGQKVTISCSGGSSNIGNSYVSWYQQLPGTAPKLLIYDNNKRPSGIPDRFSGSKSGTSATLAITGLQTGDEADYFCGTWDTSTVWEWPFGTGTKLTVL have IC50 (pM), IL-4 induced TF-1 cell proliferation under 10 pM?
Output: f
